src = paper PMC4192806

Below: a set of entries, each annotated with reported EC50.
target: human GLP1R (Homo sapiens, UniProt P43220); assay: CRE-luc luciferase assay in GLP1R and CRE-luc cotransfected HEK293T cells; assay type: cell-based
Sequence (P43220 24-463): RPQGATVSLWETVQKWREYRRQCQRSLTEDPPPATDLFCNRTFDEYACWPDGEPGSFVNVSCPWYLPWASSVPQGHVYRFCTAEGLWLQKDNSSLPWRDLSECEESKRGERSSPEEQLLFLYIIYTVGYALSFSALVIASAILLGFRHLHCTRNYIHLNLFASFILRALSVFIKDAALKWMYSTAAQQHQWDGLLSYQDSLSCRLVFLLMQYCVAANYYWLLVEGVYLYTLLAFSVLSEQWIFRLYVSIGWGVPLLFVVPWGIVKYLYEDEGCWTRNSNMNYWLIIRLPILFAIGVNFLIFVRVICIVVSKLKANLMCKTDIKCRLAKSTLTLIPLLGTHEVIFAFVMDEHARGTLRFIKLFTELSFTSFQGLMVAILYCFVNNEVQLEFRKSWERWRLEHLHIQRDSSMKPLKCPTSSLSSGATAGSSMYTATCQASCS
No end group written: not given here.
QUANTITY_MEASURED: EC50 (pM)

>>> print(df.to_string())
                                  substance  reported_result
0  HAEGTFTNDMTNYLEEKAAKEFVGWLIKGR-NH2 [xGLP, Xenopus GLP-1, reference compound]              832
1  HSEGTFTNDMTNYLEEKAAKEFVGWLIKGGPSSGAPPPS [xGLP-E4]              155
